Each item that follows carries a reported kinase still bound, per cent of control.
studyTarget: CSK (human)
assaySummary: KINOMEscan competition binding
conditionsUsed: compound 10.0 µM
measuredProperty: kinase still bound, per cent of control (%)

smilesEntry: CCOc1cc2ncc(C#N)c(Nc3ccc(OCc4ccccn4)c(Cl)c3)c2cc1NC(=O)/C=C/CN(C)C
number: 13
--
smilesEntry: CCCS(=O)(=O)Nc1ccc(F)c(C(=O)c2c[nH]c3ncc(-c4ccc(Cl)cc4)cc23)c1F
number: 7.4
--
smilesEntry: N#Cc1c(NC(=O)c2cccc3ccccc23)sc2c1CCCC2
number: 95
--
smilesEntry: COc1cc(C(=O)NC2CCN(C)CC2)ccc1Nc1ncc2c(n1)N(C1CCCC1)CCC(=O)N2C(C)C
number: 100
--
smilesEntry: O=C(NC1CC1)c1cccc(-c2ccc3c(NC(=O)C4CC4)n[nH]c3c2)c1
number: 84
--
smilesEntry: Cc1cc([C@@H](C)Nc2ccccc2C(=O)O)c2nc(N3CCOCC3)cc(=O)n2c1
number: 100
--
smilesEntry: CN(C)C/C=C/C(=O)Nc1cccc(Nc2ncc3c(n2)N(C)c2ccccc2C(=O)N3C)c1
number: 82
--
smilesEntry: C=CC(=O)Nc1cccc(Nc2nc(N[C@H]3CC[C@H](N(C)C)CC3)nc3c2ncn3C(C)C)c1
number: 90
--
smilesEntry: Cc1ccc(NC(=O)c2cccc(C(C)(C)C#N)c2)cc1Nc1ccc2ncn(C)c(=O)c2c1
number: 1.2

====

System: FLT3 (human), P36888 [N841I]
assaySummary: KINOMEscan competition binding
conditionsUsed: compound 10.0 µM
Measured kinase still bound, per cent of control of individual entries

compound: O=C(NC1CC1)c1cccc(-c2ccc3c(NC(=O)C4CC4)n[nH]c3c2)c1
kinase still bound, per cent of control / %: 33

compound: C=CC(=O)Nc1cccc(Oc2nc(Nc3ccc(N4CCN(C)CC4)cc3OC)ncc2Cl)c1
kinase still bound, per cent of control / %: 0.25

compound: Cn1c(=O)n(-c2ccc(C(C)(C)C#N)cc2)c2c3cc(-c4cnc5ccccc5c4)ccc3ncc21
kinase still bound, per cent of control / %: 100

compound: CNC(=O)c1cc(Oc2ccc(NC(=O)Nc3ccc(Cl)c(C(F)(F)F)c3)cc2)ccn1
kinase still bound, per cent of control / %: 0.25

compound: COc1cc(N2CCN(C)CC2)ccc1Nc1ncc2c(n1)N(C)c1ccccc1C(=O)N2C
kinase still bound, per cent of control / %: 100

compound: Cc1cc([C@@H](C)Nc2ccccc2C(=O)O)c2nc(N3CCOCC3)cc(=O)n2c1
kinase still bound, per cent of control / %: 44

compound: COc1cc(C)c(Sc2cnc(NC(=O)c3ccc(CNC(C)C(C)C)cc3)s2)cc1C(=O)N1CCN(C(C)=O)CC1 (centres undefined)
kinase still bound, per cent of control / %: 16

compound: COc1ccc(N(C(=O)Oc2c(C)cccc2C)c2ccnc(Nc3ccc(N4CCN(C)CC4)cc3)n2)c(OC)c1
kinase still bound, per cent of control / %: 0.65

compound: C=CC(=O)Nc1ccc(CN(C(=O)Nc2c(Cl)c(OC)cc(OC)c2Cl)c2cc(Nc3ccc(N4CCN(C)CC4)cc3)ncn2)cc1
kinase still bound, per cent of control / %: 8.4

====

Reported values of kinase still bound, per cent of control for individual entries
studyTarget: PAK6 (human)
assaySummary: KINOMEscan competition binding
conditionsUsed: compound 10.0 µM

smilesEntry: CN(C)C/C=C/C(=O)Nc1cccc(Nc2ncc3c(n2)N(C)c2ccccc2C(=O)N3C)c1
studyTarget: PAK6 (human)
quantityUnit: %
kinase still bound, per cent of control: 66
--
smilesEntry: CCC(=O)N1CCN(c2ccc(-n3c(=O)ccc4cnc5ccc(-c6cnc7ccccc7c6)cc5c43)cc2C(F)(F)F)CC1
studyTarget: PAK6 (human)
quantityUnit: %
kinase still bound, per cent of control: 77
--
smilesEntry: Cc1cc([C@@H](C)Nc2ccccc2C(=O)O)c2nc(N3CCOCC3)cc(=O)n2c1
studyTarget: PAK6 (human)
quantityUnit: %
kinase still bound, per cent of control: 93
--
smilesEntry: C=CC(=O)Nc1cccc(Nc2nc(N[C@H]3CC[C@H](N(C)C)CC3)nc3c2ncn3C(C)C)c1
studyTarget: PAK6 (human)
quantityUnit: %
kinase still bound, per cent of control: 47
